assay.system: ABL1 (Y253F) (Homo sapiens, UniProt P00519, Y253F)
protocol.description: Inhibition of ABL mutants, kinase assay
measurement.setup: 10 μM ATP; 5-dose IC50 mode
measured.quantity: IC50

Quick check: IC50 of CN1CCN(c2ccc(Nc3ncc(/C=C/C#N)c(NC4CCCC4)n3)cc2)CC1 ? < 100 nM

----------
assay.system: ALK (Homo sapiens, UniProt Q9UM73)
Construct: purchased Reaction Biology Corporation
Sequence (Q9UM73 19-1620): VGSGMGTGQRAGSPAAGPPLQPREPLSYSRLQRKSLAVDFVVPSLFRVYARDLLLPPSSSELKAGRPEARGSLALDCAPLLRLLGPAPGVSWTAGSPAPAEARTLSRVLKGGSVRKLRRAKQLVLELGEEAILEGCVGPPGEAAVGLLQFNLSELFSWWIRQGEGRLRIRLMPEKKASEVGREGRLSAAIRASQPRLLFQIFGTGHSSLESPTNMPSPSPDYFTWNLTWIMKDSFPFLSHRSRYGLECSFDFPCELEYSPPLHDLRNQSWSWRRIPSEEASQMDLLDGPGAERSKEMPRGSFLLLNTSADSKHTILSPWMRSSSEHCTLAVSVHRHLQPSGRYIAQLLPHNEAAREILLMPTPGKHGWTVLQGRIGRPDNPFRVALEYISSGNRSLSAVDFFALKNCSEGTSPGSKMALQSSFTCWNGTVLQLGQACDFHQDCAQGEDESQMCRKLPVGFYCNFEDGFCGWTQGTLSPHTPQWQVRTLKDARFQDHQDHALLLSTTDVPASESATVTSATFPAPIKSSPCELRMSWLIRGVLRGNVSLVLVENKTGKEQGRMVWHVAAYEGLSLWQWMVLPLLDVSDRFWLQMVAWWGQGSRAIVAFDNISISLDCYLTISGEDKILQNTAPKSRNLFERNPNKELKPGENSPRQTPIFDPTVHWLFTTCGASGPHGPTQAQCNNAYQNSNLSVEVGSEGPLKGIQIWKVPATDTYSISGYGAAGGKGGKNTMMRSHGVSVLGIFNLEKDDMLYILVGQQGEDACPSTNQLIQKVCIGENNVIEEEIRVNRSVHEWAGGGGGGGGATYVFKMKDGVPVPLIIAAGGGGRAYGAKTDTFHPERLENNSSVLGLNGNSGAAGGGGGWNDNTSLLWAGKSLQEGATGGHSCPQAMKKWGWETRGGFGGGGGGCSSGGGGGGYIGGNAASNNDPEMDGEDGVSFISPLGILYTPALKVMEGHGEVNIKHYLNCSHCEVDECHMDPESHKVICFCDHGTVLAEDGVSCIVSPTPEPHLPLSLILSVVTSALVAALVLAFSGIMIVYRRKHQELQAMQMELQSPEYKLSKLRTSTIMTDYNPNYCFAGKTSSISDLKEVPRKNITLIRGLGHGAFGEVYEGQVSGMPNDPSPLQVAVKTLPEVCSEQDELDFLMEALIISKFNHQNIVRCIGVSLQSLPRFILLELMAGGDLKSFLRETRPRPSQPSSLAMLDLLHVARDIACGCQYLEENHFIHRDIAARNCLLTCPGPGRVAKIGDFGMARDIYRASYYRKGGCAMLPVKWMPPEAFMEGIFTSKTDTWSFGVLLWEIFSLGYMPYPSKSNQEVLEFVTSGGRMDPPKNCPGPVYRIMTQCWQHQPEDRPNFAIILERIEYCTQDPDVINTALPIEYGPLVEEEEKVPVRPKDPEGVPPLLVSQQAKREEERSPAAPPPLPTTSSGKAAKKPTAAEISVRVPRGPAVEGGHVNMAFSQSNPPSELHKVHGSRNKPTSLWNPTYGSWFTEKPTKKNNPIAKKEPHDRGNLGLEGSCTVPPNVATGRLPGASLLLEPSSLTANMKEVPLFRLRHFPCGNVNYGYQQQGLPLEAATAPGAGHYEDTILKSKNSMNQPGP
protocol.description: Kinase inhibition assay
Type: biochemical
measurement.setup: 10 μM ATP; 5-dose IC50 mode
measured.quantity: IC50

Tell me reported IC50 for CN1CCN(c2ccc(Nc3ncc(/C=C/C#N)c(NC4CCCC4)n3)cc2)CC1 , tested with ALK (Homo sapiens, UniProt Q9UM73). < 100 nM

----------
assay.system: ABL1 (Q252H) (Homo sapiens, UniProt P00519, Q252H)
protocol.description: Inhibition of ABL mutants, kinase assay
measurement.setup: 10 μM ATP; 5-dose IC50 mode
Method: Kinase assays were performed at Reaction Biology Corporation. To a freshly prepared buffer solution was added the target kinase at a concentration of […]. The contents were mixed gently, and then compound (8h) dissolved in DMSO was added to the reaction mixture in the appropriate concentration. The mixture was incubated at room temperature for 30 min. prior to addition of ATP to initiate the reaction. Compound (8h) was tested in a 5-dose IC50 mode with 10-fold serial dilutions starting at 10 μM. […]
pIC50: −log10 of the molar value.
measured.quantity: pIC50

Form field: reported pIC50 of CN1CCN(c2ccc(Nc3ncc(/C=C/C#N)c(NC4CCCC4)n3)cc2)CC1 > 7.00

----------
assay.system: JAK3 (Homo sapiens, UniProt P52333)
Construct: purchased Reaction Biology Corporation
Sequence (P52333 1-1124): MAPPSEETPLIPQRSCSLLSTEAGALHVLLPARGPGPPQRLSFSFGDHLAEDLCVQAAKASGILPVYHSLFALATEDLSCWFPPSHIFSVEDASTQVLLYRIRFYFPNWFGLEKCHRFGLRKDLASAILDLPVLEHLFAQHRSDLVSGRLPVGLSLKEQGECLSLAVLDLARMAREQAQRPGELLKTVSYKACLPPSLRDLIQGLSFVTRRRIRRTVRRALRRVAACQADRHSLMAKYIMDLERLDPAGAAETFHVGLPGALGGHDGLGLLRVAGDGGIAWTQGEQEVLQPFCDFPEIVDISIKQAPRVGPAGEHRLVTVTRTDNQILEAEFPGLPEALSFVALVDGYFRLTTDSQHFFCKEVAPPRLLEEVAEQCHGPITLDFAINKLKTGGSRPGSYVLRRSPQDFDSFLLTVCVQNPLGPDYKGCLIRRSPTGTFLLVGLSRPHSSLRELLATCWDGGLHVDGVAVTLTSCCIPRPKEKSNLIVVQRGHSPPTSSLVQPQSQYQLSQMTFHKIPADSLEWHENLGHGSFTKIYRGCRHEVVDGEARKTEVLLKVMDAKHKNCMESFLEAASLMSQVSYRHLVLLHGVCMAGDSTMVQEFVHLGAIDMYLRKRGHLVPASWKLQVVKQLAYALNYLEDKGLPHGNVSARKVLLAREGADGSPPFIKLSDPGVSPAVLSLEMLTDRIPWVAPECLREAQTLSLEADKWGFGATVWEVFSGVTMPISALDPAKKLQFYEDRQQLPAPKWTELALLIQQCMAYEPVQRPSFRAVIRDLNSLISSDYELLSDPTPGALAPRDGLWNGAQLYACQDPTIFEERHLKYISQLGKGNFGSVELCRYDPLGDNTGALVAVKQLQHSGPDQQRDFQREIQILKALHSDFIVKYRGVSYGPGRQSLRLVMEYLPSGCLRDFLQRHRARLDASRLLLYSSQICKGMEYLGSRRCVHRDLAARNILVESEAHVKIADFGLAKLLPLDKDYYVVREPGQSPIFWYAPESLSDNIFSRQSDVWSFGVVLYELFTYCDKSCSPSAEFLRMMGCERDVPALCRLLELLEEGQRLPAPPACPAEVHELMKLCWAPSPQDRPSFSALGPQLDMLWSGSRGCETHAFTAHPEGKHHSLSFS
protocol.description: Kinase inhibition assay
Type: biochemical
measurement.setup: 10 μM ATP; 5-dose IC50 mode
measured.quantity: IC50

API: value(readout= IC50, system= JAK3 (Homo sapiens, UniProt P52333), query= CN1CCN(c2ccc(Nc3ncc(/C=C/C#N)c(NC4CCCC4)n3)cc2)CC1 ) 100 to 1000 nM

----------
assay.system: PIM1 (Homo sapiens, UniProt P11309)
Construct: purchased Reaction Biology Corporation
Sequence (P11309 whole entry): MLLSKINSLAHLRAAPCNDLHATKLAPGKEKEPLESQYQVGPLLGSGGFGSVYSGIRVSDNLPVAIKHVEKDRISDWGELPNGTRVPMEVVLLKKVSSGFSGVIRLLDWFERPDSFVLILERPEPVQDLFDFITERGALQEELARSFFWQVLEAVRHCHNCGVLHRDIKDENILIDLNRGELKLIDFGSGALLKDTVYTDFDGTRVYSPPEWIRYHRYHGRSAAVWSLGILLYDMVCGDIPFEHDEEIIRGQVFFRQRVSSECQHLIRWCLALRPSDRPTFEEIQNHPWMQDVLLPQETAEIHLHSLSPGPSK
protocol.description: Kinase inhibition assay
Assay type: biochemical
measurement.setup: 10 μM ATP; 5-dose IC50 mode
measured.quantity: IC50

Which IC50 value is on record for CN1CCN(c2ccc(Nc3ncc(/C=C/C#N)c(NC4CCCC4)n3)cc2)CC1 ? > 1000 nM

----------
assay.system: PLK2 (Homo sapiens)
Construct: purchased Reaction Biology Corporation
protocol.description: Kinase inhibition assay
Type: biochemical
measurement.setup: 10 μM ATP; 5-dose IC50 mode
Description: Kinase assays were performed at Reaction Biology Corporation. To a freshly prepared buffer solution was added the target kinase at a concentration of […]. The contents were mixed gently, and then compound 8h dissolved in DMSO was added to the reaction mixture in the appropriate concentration. The mixture was incubated at room temperature for 30 min. prior to addition of ATP to initiate the reaction. Compound 8h was tested in a 5-dose IC50 mode with 10-fold serial dilutions starting at 10 μM. […]
measured.quantity: IC50

What does the record list as IC50 for CN1CCN(c2ccc(Nc3ncc(/C=C/C#N)c(NC4CCCC4)n3)cc2)CC1 ? > 1000 nM

----------
assay.system: Aurora A (Homo sapiens, UniProt O14965)
Construct: purchased Reaction Biology Corporation
Sequence (O14965 whole entry): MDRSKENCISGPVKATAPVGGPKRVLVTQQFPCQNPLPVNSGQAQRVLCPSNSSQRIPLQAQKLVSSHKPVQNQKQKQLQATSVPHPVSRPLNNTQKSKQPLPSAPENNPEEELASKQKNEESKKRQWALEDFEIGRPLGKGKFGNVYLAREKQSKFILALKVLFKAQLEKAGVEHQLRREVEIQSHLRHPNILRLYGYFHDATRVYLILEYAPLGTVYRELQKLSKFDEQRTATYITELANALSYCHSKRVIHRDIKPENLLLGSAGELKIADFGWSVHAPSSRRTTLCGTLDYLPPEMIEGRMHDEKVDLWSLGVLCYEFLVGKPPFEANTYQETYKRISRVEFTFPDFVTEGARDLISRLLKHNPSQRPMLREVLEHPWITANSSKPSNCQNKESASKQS
protocol.description: Kinase inhibition assay
Assay type: biochemical
measurement.setup: 10 μM ATP; 5-dose IC50 mode
measured.quantity: IC50

Please look up its IC50: CN1CCN(c2ccc(Nc3ncc(/C=C/C#N)c(NC4CCCC4)n3)cc2)CC1 100 to 1000 nM

----------
assay.system: CHK1 (Homo sapiens)
Construct: purchased Reaction Biology Corporation
Sequence (O14757 whole entry): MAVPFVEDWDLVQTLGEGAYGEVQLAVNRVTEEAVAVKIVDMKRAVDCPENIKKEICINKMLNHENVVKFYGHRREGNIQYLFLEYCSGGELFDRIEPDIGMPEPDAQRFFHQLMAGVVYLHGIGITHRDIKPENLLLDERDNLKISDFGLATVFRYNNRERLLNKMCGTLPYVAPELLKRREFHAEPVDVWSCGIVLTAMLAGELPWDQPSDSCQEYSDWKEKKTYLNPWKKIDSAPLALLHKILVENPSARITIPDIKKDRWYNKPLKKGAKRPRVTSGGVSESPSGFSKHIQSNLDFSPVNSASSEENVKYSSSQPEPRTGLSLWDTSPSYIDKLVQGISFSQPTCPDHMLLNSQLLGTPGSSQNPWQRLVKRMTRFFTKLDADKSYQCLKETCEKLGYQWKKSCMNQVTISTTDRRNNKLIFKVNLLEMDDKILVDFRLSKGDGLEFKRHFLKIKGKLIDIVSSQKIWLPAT
protocol.description: Kinase inhibition assay
Assay type: biochemical
measurement.setup: 10 μM ATP; 5-dose IC50 mode
measured.quantity: IC50

// map CN1CCN(c2ccc(Nc3ncc(/C=C/C#N)c(NC4CCCC4)n3)cc2)CC1 to recorded IC50 (system: CHK1 (Homo sapiens)) 100 to 1000 nM

----------
assay.system: ABL1 (E255K) (Homo sapiens, UniProt P00519, E255K)
protocol.description: Inhibition of ABL mutants, kinase assay
measurement.setup: 10 μM ATP; 5-dose IC50 mode
measured.quantity: IC50

# lookup: IC50 of CN1CCN(c2ccc(Nc3ncc(/C=C/C#N)c(NC4CCCC4)n3)cc2)CC1 [Compound 8h] < 100 nM

----------
assay.system: Aurora B (Homo sapiens)
Construct: purchased Reaction Biology Corporation
Sequence (Q96GD4 whole entry): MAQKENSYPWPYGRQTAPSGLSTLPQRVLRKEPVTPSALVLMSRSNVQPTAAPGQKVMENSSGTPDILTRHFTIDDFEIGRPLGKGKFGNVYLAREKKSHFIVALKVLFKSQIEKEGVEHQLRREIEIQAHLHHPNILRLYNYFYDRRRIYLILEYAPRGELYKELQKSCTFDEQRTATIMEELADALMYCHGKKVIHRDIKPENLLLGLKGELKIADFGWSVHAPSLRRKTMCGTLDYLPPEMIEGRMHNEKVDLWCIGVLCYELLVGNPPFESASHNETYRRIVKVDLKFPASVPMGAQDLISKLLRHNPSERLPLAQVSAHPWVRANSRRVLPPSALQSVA
protocol.description: Kinase inhibition assay
Type: biochemical
measurement.setup: 10 μM ATP; 5-dose IC50 mode
measured.quantity: IC50

For Aurora B (Homo sapiens), provide IC50 of CN1CCN(c2ccc(Nc3ncc(/C=C/C#N)c(NC4CCCC4)n3)cc2)CC1 please. < 100 nM

----------
assay.system: ABL1 (H396P) (Homo sapiens, UniProt P00519, H396P)
protocol.description: Inhibition of ABL mutants, kinase assay
measurement.setup: 10 μM ATP; 5-dose IC50 mode
pIC50: −log10 of the molar value.
measured.quantity: pIC50

What value of measured pIC50 is listed for CN1CCN(c2ccc(Nc3ncc(/C=C/C#N)c(NC4CCCC4)n3)cc2)CC1 ? > 7.00

----------
assay.system: EGFR (Homo sapiens, UniProt P00533)
Construct: purchased Reaction Biology Corporation
Sequence (P00533 25-1210): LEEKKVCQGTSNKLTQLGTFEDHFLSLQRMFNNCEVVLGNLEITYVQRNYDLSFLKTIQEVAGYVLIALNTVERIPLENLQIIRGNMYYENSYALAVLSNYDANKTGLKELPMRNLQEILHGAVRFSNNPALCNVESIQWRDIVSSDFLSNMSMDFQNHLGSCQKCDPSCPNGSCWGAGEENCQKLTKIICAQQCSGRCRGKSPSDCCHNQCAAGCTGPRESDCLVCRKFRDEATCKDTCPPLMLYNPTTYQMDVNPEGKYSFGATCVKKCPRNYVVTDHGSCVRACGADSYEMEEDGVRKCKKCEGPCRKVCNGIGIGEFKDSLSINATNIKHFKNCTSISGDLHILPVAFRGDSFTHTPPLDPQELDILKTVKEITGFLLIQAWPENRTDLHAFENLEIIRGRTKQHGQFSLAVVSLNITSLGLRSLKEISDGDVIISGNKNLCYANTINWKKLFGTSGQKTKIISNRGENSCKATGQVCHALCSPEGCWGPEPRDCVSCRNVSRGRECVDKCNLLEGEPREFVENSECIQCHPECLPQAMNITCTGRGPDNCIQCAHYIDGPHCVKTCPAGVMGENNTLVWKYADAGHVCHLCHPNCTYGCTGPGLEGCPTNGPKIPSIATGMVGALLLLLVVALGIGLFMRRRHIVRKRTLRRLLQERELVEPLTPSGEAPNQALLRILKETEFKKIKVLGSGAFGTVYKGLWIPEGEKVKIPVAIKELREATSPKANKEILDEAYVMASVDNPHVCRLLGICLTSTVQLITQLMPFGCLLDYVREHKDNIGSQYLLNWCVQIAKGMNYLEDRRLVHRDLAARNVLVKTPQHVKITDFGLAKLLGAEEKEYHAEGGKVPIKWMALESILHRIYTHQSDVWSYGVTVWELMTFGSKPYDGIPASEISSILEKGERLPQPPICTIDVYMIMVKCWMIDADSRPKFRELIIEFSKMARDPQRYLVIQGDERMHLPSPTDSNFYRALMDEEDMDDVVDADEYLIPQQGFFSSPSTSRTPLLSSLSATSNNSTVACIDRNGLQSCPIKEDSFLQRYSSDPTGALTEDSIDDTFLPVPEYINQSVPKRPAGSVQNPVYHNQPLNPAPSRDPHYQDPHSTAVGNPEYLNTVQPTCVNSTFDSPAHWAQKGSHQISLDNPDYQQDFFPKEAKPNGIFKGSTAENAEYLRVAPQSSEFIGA
protocol.description: Kinase inhibition assay
Assay type: biochemical
measurement.setup: 10 μM ATP; 5-dose IC50 mode
measured.quantity: IC50

Value wanted: IC50 (EGFR (Homo sapiens, UniProt P00533)) of entry CN1CCN(c2ccc(Nc3ncc(/C=C/C#N)c(NC4CCCC4)n3)cc2)CC1 100 to 1000 nM

----------
assay.system: MEK2 (Homo sapiens, UniProt P36507)
Construct: purchased Reaction Biology Corporation
protocol.description: Kinase inhibition assay
Assay type: biochemical
measurement.setup: 10 μM ATP; 5-dose IC50 mode
measured.quantity: IC50

Lab note: need IC50 with MEK2 (Homo sapiens, UniProt P36507) for entry CN1CCN(c2ccc(Nc3ncc(/C=C/C#N)c(NC4CCCC4)n3)cc2)CC1 [Compound 8h] , please look it up. > 1000 nM

----------
assay.system: ARK5/NUAK1 (Homo sapiens)
Construct: purchased Reaction Biology Corporation
Sequence (O60285 whole entry): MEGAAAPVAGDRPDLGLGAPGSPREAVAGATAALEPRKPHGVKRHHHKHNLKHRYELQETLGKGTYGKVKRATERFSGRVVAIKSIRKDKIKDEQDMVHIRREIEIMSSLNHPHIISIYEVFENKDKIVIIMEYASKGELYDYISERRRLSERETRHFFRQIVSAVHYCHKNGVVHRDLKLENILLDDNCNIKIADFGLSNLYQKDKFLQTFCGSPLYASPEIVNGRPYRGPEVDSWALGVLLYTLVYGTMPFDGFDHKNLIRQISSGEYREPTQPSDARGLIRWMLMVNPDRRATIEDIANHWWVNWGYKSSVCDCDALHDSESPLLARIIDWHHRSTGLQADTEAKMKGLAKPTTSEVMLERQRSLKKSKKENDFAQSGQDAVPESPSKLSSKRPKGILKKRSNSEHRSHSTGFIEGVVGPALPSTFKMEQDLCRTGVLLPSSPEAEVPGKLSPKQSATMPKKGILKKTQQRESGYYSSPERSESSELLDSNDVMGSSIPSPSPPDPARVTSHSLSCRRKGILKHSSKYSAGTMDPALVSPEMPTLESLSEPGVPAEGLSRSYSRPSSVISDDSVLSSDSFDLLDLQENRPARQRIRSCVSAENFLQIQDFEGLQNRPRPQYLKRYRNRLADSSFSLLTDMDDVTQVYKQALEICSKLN
protocol.description: Kinase inhibition assay
Format: biochemical
measurement.setup: 10 μM ATP; 5-dose IC50 mode
measured.quantity: IC50

Suppose we examine the compound CN1CCN(c2ccc(Nc3ncc(/C=C/C#N)c(NC4CCCC4)n3)cc2)CC1 [Compound 8h] ; what IC50 value has been reported? < 100 nM

----------
assay.system: ABL1 (Homo sapiens, UniProt P00519)
Construct: purchased Reaction Biology Corporation
protocol.description: Kinase inhibition assay
Type: biochemical
measurement.setup: 10 μM ATP; 5-dose IC50 mode
measured.quantity: IC50

Look up IC50: CN1CCN(c2ccc(Nc3ncc(/C=C/C#N)c(NC4CCCC4)n3)cc2)CC1 < 100 nM

Entry source: patent US9815847B2
